// reported PBM E-score per item
Target: Stb4 (UniProt P50104)
Sequence (P50104 whole entry): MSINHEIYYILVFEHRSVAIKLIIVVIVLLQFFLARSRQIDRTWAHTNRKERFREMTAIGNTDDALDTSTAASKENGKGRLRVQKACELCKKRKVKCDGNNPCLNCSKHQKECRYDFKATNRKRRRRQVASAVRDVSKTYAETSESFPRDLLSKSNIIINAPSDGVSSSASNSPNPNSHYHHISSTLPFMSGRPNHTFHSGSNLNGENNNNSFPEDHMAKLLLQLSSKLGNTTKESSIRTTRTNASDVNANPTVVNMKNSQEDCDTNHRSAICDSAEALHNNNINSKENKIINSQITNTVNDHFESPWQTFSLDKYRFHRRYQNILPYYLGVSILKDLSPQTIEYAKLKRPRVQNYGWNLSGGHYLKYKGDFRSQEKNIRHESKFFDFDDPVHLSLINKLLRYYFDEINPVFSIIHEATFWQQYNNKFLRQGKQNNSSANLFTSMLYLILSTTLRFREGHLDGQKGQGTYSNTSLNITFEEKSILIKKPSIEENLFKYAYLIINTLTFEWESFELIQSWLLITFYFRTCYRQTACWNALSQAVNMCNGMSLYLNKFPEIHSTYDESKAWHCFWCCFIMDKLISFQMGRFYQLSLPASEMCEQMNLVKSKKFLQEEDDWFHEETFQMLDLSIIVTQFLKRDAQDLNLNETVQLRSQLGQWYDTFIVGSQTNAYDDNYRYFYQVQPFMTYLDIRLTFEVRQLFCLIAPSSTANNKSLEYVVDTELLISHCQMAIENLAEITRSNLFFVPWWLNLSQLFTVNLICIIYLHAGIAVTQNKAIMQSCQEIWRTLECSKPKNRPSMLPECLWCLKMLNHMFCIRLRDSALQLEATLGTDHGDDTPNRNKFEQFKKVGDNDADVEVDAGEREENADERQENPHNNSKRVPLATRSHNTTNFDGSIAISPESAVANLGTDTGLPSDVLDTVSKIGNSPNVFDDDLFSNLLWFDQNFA
Assay: PBM E-score (8-mer binding enrichment) (E-score (-0.5 to 0.5)); higher = stronger / more preferred TF binding
Settings: protein concentration: 200 nM; construct: GST-DNA-binding domain
Over roughly 33,000 sequences, “E-score (-0.5 to 0.5)” has its median near -0.056; the highest 2% begin near 0.38. This excerpt belongs to a sample that is enriched for the highest values.
Write the number on its own, no unit after it.

> print(dat)
   macromolecule.sequence  readout.label  recorded.result
1                CTTCGGAC    PBM E-score            0.386

QUERY: Please look up its PBM E-score: TCAGGGCA
RESULT: -0.18

QUERY: Given CTTCGAAC , state its recorded PBM E-score.
RESULT: -0.00115

QUERY: Item under review: CGGGCTGA . Reported PBM E-score?
RESULT: 0.0911

QUERY: Requested field: PBM E-score. Item: CTCGTAGA
RESULT: -0.246

* * *

Target: Stb4 (UniProt P50104)
Experiment: PBM E-score (8-mer binding enrichment) (E-score (-0.5 to 0.5)); higher = stronger / more preferred TF binding
Conditions: protein concentration: 200 nM; construct: GST-DNA-binding domain
The full ranking holds about 33,000 sequences; the median of “E-score (-0.5 to 0.5)” is about -0.056, and the highest 2% start at about 0.38. The sample holds the highest values, similar sequences and a random draw of the others, so the mix is not that of the screen.
We begin with a simple list: items and their reported PBM E-score.
Field format: numeric only.

// known answers, use as guide
> print(dat)
   macromolecule.sequence  readout.label  recorded.result
1                TGAGTGAA    PBM E-score           -0.295
2                ATTTCGGA    PBM E-score            0.454
3                AACTGGAA    PBM E-score          -0.0984
4                AATGGTTG    PBM E-score             0.02
5                AATTCAAC    PBM E-score            0.015

QUERY: PBM E-score for AACATCCT ?
RESULT: -0.0622

QUERY: Look up PBM E-score for this sequence: ATGATCCG
RESULT: 0.397

* * *

Property: PBM E-score; scope: individual sequences
Molecular target: Stb4 (UniProt P50104)
Test: PBM E-score (8-mer binding enrichment) (E-score (-0.5 to 0.5)); higher = stronger / more preferred TF binding
Conditions: protein concentration: 200 nM; construct: GST-DNA-binding domain
Over roughly 33,000 sequences, “E-score (-0.5 to 0.5)” has its median near -0.056; the highest 2% begin near 0.38. The entries come from a sample that favours the highest values as a whole.
Reply with just the number.

Answered examples (2):
> print(dat)
   macromolecule.sequence  recorded.result
1                CTGCCATC          -0.0272
2                AGAATAAA           -0.194

QUERY: API: value(readout= PBM E-score, system= Stb4 (UniProt P50104), query= AGCCGAGG )
RESULT: 0.437

* * *

Target: Stb4 (UniProt P50104)
Assay: PBM E-score (8-mer binding enrichment) (E-score (-0.5 to 0.5)); higher = stronger / more preferred TF binding
Details: protein concentration: 200 nM; construct: GST-DNA-binding domain
Whole data set: some 33,000 sequences, median “E-score (-0.5 to 0.5)” near -0.056, cut for the highest 2% near 0.38. Many of the other results were omitted from the sample, so the highest values are more common in it than they were.
I would appreciate it if you labelled entries criterion met when PBM E-score is 0.3 or higher, otherwise criterion not met.

Solved cases below.
> print(dat)
    macromolecule.sequence          target.system     classification
 1                AAACCCGA  Stb4 (UniProt P50104)      criterion met
 2                CACGGGAC  Stb4 (UniProt P50104)  criterion not met
 3                GTTTGCGA  Stb4 (UniProt P50104)  criterion not met
 4                AGTCTAAC  Stb4 (UniProt P50104)  criterion not met
 5                TAAGAGAA  Stb4 (UniProt P50104)  criterion not met
 6                ATTCGGGG  Stb4 (UniProt P50104)      criterion met
 7                GAGCCGGA  Stb4 (UniProt P50104)      criterion met
 8                CCGCTGAC  Stb4 (UniProt P50104)  criterion not met
 9                CCGAGGAA  Stb4 (UniProt P50104)      criterion met
10                AGTTCCGA  Stb4 (UniProt P50104)      criterion met

QUERY: Check the entry AGACTGAG : does PBM E-score equal or exceed 0.3?
RESULT: criterion not met

QUERY: Decide: PBM E-score of ACGAATCA >= 0.3?
RESULT: criterion not met

QUERY: Does PBM E-score meet or surpass 0.3 for CTCGGGGA ?
RESULT: criterion met

QUERY: Textbook exercise: given the entry CAACCCGA , state whether its PBM E-score is greater than or equal to 0.3.
RESULT: criterion met

QUERY: Does the reported PBM E-score for AAGCCGAA fall at or above the 0.3 mark?
RESULT: criterion met

QUERY: Could you tell me if the measured PBM E-score of CCGAATTC reaches 0.3 or more?
RESULT: criterion met

QUERY: Is PBM E-score for CCCCCGAC at or above 0.3?
RESULT: criterion not met

QUERY: Decide: PBM E-score of CAGGGAGA >= 0.3?
RESULT: criterion not met

* * *

Target: Stb4 (UniProt P50104)
Experiment: PBM E-score (8-mer binding enrichment) (E-score (-0.5 to 0.5)); higher = stronger / more preferred TF binding
Conditions: protein concentration: 200 nM; construct: GST-DNA-binding domain
The full ranking holds about 33,000 sequences; the median of “E-score (-0.5 to 0.5)” is about -0.056, and the highest 2% start at about 0.38. The entries come from a sample that favours the highest values as a whole.
Each entry below lists one item and its recorded PBM E-score value.
# print the numeric value only

Worked examples, 4 sequences total:
> print(dat)
   macromolecule.sequence          target.system  recorded.result
1                CACCCCAC  Stb4 (UniProt P50104)           0.0245
2                AACCACAG  Stb4 (UniProt P50104)           -0.177
3                CCTGAACC  Stb4 (UniProt P50104)           -0.232
4                GATTCGCC  Stb4 (UniProt P50104)          -0.0248

QUERY: Query: PBM E-score; subject: AAACTCGC
RESULT: -0.0551

* * *

Target: Stb4 (UniProt P50104)
Assay: PBM E-score (8-mer binding enrichment) (E-score (-0.5 to 0.5)); higher = stronger / more preferred TF binding
Settings: protein concentration: 200 nM; construct: GST-DNA-binding domain
The full ranking holds about 33,000 sequences; the median of “E-score (-0.5 to 0.5)” is about -0.056, and the highest 2% start at about 0.38. Shown is part of a subset that was picked to be rich in the highest values.
Classification by PBM E-score | ranges: Low = under -0.02, Mid = from -0.02 up to 0.3, High = 0.3 and over

Use the examples below as a reference point.
> print(dat)
   macromolecule.sequence  classification
1                CGCCTTTC             Low
2                CGGAAGGA            High
3                ACCCGATA            High
4                AGATCCGG            High
5                GGGAAGTA             Mid
6                ATTGGGGA             Low

QUERY: Form field 'band' for CCGGCATC
RESULT: Mid

QUERY: Bin? CTCGGGCA
RESULT: High

QUERY: Quick check: band for AGCTTCGA
RESULT: Low

QUERY: Bin? GGGAAGGA
RESULT: Mid

QUERY: Classify this sequence: GGCACAAA
RESULT: Mid
